Target: UniProt P35462
Sequence (P35462 whole entry): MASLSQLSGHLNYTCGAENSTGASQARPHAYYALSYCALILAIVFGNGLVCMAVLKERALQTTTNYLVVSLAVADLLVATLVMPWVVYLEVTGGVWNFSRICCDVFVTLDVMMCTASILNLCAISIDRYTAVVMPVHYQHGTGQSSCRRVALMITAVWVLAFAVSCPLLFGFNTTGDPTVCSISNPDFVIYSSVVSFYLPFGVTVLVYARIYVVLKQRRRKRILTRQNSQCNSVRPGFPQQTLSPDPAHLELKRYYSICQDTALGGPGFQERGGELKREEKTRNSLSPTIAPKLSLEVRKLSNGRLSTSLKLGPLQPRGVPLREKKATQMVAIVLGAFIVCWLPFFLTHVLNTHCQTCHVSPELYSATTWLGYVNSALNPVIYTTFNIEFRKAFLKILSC
Experiment: Displacement of [3H]radioligand from human recombinant dopamine D3 receptor expressed in HEK293 cells by microplate scintillation counting
Type: cell-based
pKi: −log10 of the molar value.
Examples of compounds with documented pKi follow.

Per the records, this compound ( `CN1CCc2ccccc2Cc2c[nH]c3cccc(c23)C1` ) has pKi equal to < 5.00

Per the records, this compound ( c1ccc2c(c1)CCN1CCc3cccc4[nH]cc(c34)C21 (stereo not drawn) ) has pKi equal to < 5.00

Per the records, this compound ( c1ccc2c(c1)CCN1CCc3[nH]c4ccccc4c3C21 (stereo not drawn) ) has pKi equal to < 5.00
